System: SK-MEL-28 melanoma
ASSAY_TEXT: NCI tumour cell line growth inhibition, 48 h
Parameter TGI: see the listing below.

## Task Request body: readout TGI, system SK-MEL-28 melanoma, query `O=c1c2cc(Cl)ccc2sc2cccc(Cl)c12` . Return the value.
## Result > 100 µM

###

Tested on: HCT-15 colon
ASSAY_TEXT: NCI tumour cell line growth inhibition, 48 h
ATTRIBUTE_MEASURED: GI50

>>> result("O=C1CCc2c(sc3[nH]c(=S)n(Cc4ccc(Cl)cc4)c(=O)c23)C1")
"347 nM"
>>> result("O=C1C[C@@H]2/C(=C(O)\\C=C\\c3ccccc3)C(=O)C=C[C@@H]2O1")
"1300 nM"
>>> result("Cc1ncc(C(=O)Nc2ccc(CN3CCN(C)CC3)c(C(F)(F)F)c2)cc1C#Cc1cnc(N)cc1C#N")
"548 nM"
>>> result("C[N+]1=C(/C=C\\C=C\\c2ccccc2)C(C)(C)c2ccccc21")
"2270 nM"

As a next step, examine the compound that follows.
## Task Give the measured GI50 of `COc1ccc(-c2ccc(-c3ccc(C(=N)N)o3)o2)cc1` .
## Result 675 nM

Attribution: PubChem BioAssay (NCI)
